System: XF 498 CNS
measurement_description: NCI tumour cell line growth inhibition, 48 h
quantity_kind: TGI

Some solved entries appear below for comparison.
COC1(OC)C2(Cl)C3=CCCC=C3C1(Cl)C(Cl)=C2Cl | 50.2 µM
CC(C)CCCC(C)[C@H]1CCC(C2C[C@@H](O)[C@@H]3CC(O)[C@@H](O)C[C@]3(CO)C2=O)[C@]1(C)CCO (stereo partly specified) | > 59.6 µM
Cc1nnc2n1N=C(c1ccccc1)C(c1ccccc1)S2 (stereo unspecified) | > 100 µM
O=C1CC23CCCCCCCCCCC2(C1)CC(=O)C3 (stereo unspecified) | 49.2 µM
c1cnc2c(c1)-n1cccc1C1(CCCCC1)NN2 | > 100 µM

// Cc1c(C)c([N+](=O)[O-])c2c(c1N)C(=O)c1ccccc1C2=O : TGI value = > 100 µM

The compound listed as O=C1NC(O)n2c(=O)[nH]c(=O)n21 (stereo unspecified) has a reported TGI of > 100 µM

The value of TGI measured for the compound Cc1cc2c(c(C(=O)O)c1C)-c1cccc(Cl)c1C2=O turned out to be > 100 µM

GET /value?item= CCOc1ccc2nc(NC(=O)C(=O)C(C(=O)c3ccccc3F)C3OC(=O)c4ccccc43)sc2c1 (stereo unspecified) &field=TGI returns 46.2 µM

GET /value?item= O=c1c2cccnc2ncn1CCCN1CCCCC1 &field=TGI returns > 100 µM

For COc1ccc(-c2ccc(CC(=O)O)cc2)cc1OC the compound record lists TGI as > 100 µM
